Data provenance is patent US7687508B2.

- assay details: Single-dose pharmacokinetics in rats
- Format: in vivo
- condition notes: male, Sprague-Dawley, plasma; rat, oral bioavailability; dose per compound (mg/kg)
reported property: bioavailability (%)

The examples below pair each entry with its known result.
chemical_string=CO[C@@H]1CC[C@H](N2CC[C@H](Nc3ncnc4ccc(C(F)(F)F)cc34)C2=O)[C@H](CNC(C)=O)C1 reported_property=bioavailability quantitative_result=93
chemical_string=CC(C)(C)N[C@@H]1CC[C@H](N2CC[C@H](Nc3ncnc4cnc(C(C)(C)C)nc34)C2=O)[C@H](NS(C)(=O)=O)C1 reported_property=bioavailability quantitative_result=88
chemical_string=CCC(=O)N[C@@H]1C[C@H](N)CC[C@@H]1N1CC[C@H](Nc2ncnc3ccc(C(F)(F)F)cc23)C1=O reported_property=bioavailability quantitative_result=57

a = CC(C)(C)N[C@@H]1CC[C@H](N2CC[C@H](NC(=O)c3ccnc(C(C)(C)C)n3)C2=O)[C@H](NS(C)(=O)=O)C1
b = CCC(=O)N[C@@H]1C[C@H](NC(C)(C)C)CC[C@@H]1N1CC[C@H](NC(=O)c2ccnc(C(C)(C)C)n2)C1=O
Kindly compare a with b and tell me which has the lower bioavailability figure. Provide the label of your selected option as the answer.
a

---

- assayed target: human CCR2 (Homo sapiens, UniProt P41597)
- Sequence (P41597 1-360 isoform P41597-2): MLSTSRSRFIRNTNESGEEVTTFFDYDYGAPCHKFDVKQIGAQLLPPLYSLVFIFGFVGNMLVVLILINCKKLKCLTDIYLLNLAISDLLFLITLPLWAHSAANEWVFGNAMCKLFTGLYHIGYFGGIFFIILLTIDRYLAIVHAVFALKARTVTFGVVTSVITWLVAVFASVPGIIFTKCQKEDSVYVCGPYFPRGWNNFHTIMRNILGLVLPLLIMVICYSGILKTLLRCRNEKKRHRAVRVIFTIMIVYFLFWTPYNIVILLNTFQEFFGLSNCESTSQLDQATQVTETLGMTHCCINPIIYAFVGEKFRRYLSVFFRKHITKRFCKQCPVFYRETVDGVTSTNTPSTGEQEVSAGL
- assay details: Human peripheral blood mononuclear cell binding (CCR2 binding), 125I-human MCP-1 tracer
- Parameters: hPBMCs were isolated from human leukopak (Biological Specialty Inc.); endogenous in cells; host or cells: human peripheral blood mononuclear cells from leukopak (Biological Specialty Inc.)
- condition notes: hPBMCs, 125I-MCP-1; figure in parentheses in the cell not copied (count of determinations); read-out: CCR2 Binding IC50
reported property: IC50 (nM)

chemical_string=CCC(=O)N[C@@H]1C[C@H](NC(C)(C)C)CC[C@@H]1N1CC[C@H](NC(=O)c2ccnc(C(C)(C)C)n2)C1=O assayed_target="human CCR2 (Homo sapiens, UniProt P41597)" reported_property=IC50 u=nM quantitative_result=4.49

A = CC(C)(C)N[C@@H]1CC[C@H](N2CC[C@H](Nc3ncnc4cnc(C(C)(C)C)nc34)C2=O)[C@H](NS(C)(=O)=O)C1
B = CC(=O)N[C@@H]1C[C@H](N(C)C(C)C)CC[C@@H]1N1CC[C@H](NC(=O)c2cccc(C(C)(C)C)n2)C1=O
Choose between A and B : whose measured IC50 value is numerically larger? Bench note: the answer is the label of the chosen record.
A

---

- assayed target: human CCR2 (Homo sapiens)
- Sequence (P41597 1-360 isoform P41597-2): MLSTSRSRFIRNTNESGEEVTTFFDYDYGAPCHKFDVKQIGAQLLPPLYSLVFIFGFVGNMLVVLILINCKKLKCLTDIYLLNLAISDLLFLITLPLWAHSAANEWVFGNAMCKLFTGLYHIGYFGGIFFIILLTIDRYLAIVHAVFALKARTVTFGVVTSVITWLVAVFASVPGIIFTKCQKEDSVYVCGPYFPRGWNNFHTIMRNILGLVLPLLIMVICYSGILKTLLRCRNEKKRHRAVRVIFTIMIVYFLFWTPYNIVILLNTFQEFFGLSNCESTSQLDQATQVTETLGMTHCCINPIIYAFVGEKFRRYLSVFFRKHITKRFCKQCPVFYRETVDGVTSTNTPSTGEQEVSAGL
- assay details: Human peripheral blood mononuclear cell binding (CCR2 binding), 125I-human MCP-1 tracer
- Parameters: hPBMCs were isolated from human leukopak (Biological Specialty Inc.); endogenous in cells; host or cells: human peripheral blood mononuclear cells from leukopak (Biological Specialty Inc.)
- condition notes: hPBMCs, 125I-MCP-1; figure in parentheses in the cell not copied (count of determinations); read-out: CCR2 Binding IC50
- Protocol: See also: Yoshimura et al., J. Immunol. 1990, 145, 292. […] Total ^125I-MCP-1 binding was assessed as follows: to each reaction of a total volume of 150 μl were added 5×10^5 cells, 0.15 nM […], and compound such that the final concentration ranged from 0 to 100 nM. […] The plate was sealed and counted on the Trilux for 1 minute. Non-specific binding was determined in the presence of 300 nM cold MCP-1 (PeproTech Inc.). […]
pIC50: −log10 of the molar value.
reported property: pIC50

compound="CC(=O)N[C@@H]1C[C@H](N(C)C(C)C)CC[C@@H]1N1CC[C@H](Nc2ncnc3cnc(C(C)(C)C)nc23)C1=O [Example 1]" quantitative_result=8.48
compound="CN[C@@H]1CC[C@H](N2CC[C@H](Nc3ncnc4ccc(C(F)(F)F)cc34)C2=O)[C@H](NC(C)=O)C1 [Example 3]" quantitative_result=8.32
compound="CO[C@@H]1CC[C@H](N2CC[C@H](Nc3ncnc4ccc(C(F)(F)F)cc34)C2=O)[C@H](CNC(C)=O)C1 [Example 15]" quantitative_result=8.48
